target: ASGPR (Homo sapiens); test: Affinity to ASGPR by surface plasmon resonance (SPR)
Sequence (P07306 whole entry): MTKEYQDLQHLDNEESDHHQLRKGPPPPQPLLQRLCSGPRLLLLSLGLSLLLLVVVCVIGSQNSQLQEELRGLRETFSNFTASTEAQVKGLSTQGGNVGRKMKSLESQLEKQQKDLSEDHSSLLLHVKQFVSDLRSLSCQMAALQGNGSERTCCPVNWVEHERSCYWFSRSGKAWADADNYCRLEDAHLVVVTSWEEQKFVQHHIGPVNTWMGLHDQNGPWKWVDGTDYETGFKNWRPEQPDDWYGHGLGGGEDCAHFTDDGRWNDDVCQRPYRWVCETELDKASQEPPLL
pKd: −log10 of the molar value.

[
  {
    "COMPOUND": "C=CCO[C@H]1O[C@H](Cn2cc(CO)nn2)[C@H](O)[C@H](O)[C@H]1Nc1nccc(C(F)(F)F)n1 [A64]",
    "pKd": "5.00 to 6.00"
  },
  {
    "COMPOUND": "O[C@@H]1[C@H](O)[C@@H](Nc2cncc(C(F)(F)F)n2)CO[C@@H]1CN1CCCCC1 [A96]",
    "pKd": "5.00 to 6.00"
  },
  {
    "COMPOUND": "[N-]=[N+]=NC[C@@]12CO[C@@H](O1)[C@H](Nc1nc(Cl)ns1)[C@@H](O)[C@H]2O [A74]",
    "pKd": "> 6.00"
  },
  {
    "COMPOUND": "CC(C)C[C@@H]1NC(=O)[C@H](Cc2cnc[nH]2)NC(=O)[C@H](Cc2c[nH]c3ccccc23)NC(=O)[C@H](C)NC(=O)[C@@H]2CSSC[C@H](NC(=O)[C@H](Cc3c[nH]c4ccccc34)NC(=O)[C@H](C(C)C)NC(=O)[C@H](CC(C)C)NC(=O)[C@H](CCC(=O)O)NC(=O)CNC1=O)C(=O)N[C@@H]([C@@H](C)O)C(=O)N1CCC[C@@H]1C(=O)N1C[C@@H](NC(=O)COc3ccc(CC(=O)NC[C@H]4OC[C@H](Nc5cncc(C(F)(F)F)n5)[C@@H](O)[C@H]4O)cc3)C[C@H]1C(=O)N[C@@H](CC(=O)O)C(=O)N2 [Compound 61]",
    "pKd": "> 7.00"
  }
]

Origin of measurements: patent US12091402B2
